test system: DMS-273; assay: NCI tumour cell line growth inhibition, 48 h
Activity calls are given as the source filed them. Cut-off read from the data, not from the text of the source: active = GI50 up to about 1.1 µM and inactive = higher.
measured-property: GI50

// Input: CC1(C)CC(=O)C(C(=O)Nc2cccs2)=C(O)C1 . Output its GI50 only.
25.2 µM (inactive)

// Input: CC1(C)OCC([C@H]2CC23SCCCS3)O1 (stereo not given in full) . Output its GI50 only.
> 100 µM (inactive)

// Input: Cc1cccc2[s+]snc12 . Output its GI50 only.
> 100 µM (inactive)

// Input: CCOc1ccc(NC(=O)c2c(N/N=C/c3ccc(OC)cc3)nc(=O)[nH]c2C)cc1 . Output its GI50 only.
33.7 µM (inactive)

// Input: CCN(CC)CC[n+]1ccc2c(C)c3[nH]c4ccc(O)cc4c3c(C)c2c1 . Output its GI50 only.
2.92 µM (inactive)

###

system: HOP-62; assay: NCI tumour cell line growth inhibition, 48 h
Calls of active or inactive are those of the source. Rule as the data show it: active = GI50 up to about 1.1 µM and inactive = higher.
Respond with a class label; see Y for active, N for inactive

Per the records of this test, what outcome belongs to O=S(=O)(c1ccccc1)c1ccc(/N=N/O)nc1 ?
N

Per the records of this test, what outcome belongs to COc1cc2c(cc1OC)C(C(CO)CO)N(CC(O)CCl)CC2 (stereo unspecified) ?
N

Per the records of this test, what outcome belongs to CCOC(=O)CCC1(C(=O)O[C@@H]2C[C@H](C)CC[C@H]2C(C)C)CCCCC1=O (stereo partly specified) ?
N

Per the records of this test, what outcome belongs to COc1ccc(/C(Nc2ccccc2)=C(\CCl)c2ccccc2)cc1OC ?
N

Per the records of this test, what outcome belongs to O=c1[nH]c(=O)n([C@H]2C[C@@H](CO)[C@@H](O)C2)cc1I ?
N

Per the records of this test, what outcome belongs to CC(=O)C1C(=O)C(=O)N(c2cccc(C)c2C)C1=O (stereo unspecified) ?
N

Per the records of this test, what outcome belongs to CC(C)=CCc1[nH]c2ccccc2c1C1=C(O)C(=O)C(c2c(CC=C(C)C)[nH]c3ccccc23)=C(O)C1=O ?
Y

Per the records of this test, what outcome belongs to OCCOCn1nncc1Cn1ncc2c(SCc3ccccc3)ncnc21 ?
N

Per the records of this test, what outcome belongs to COc1ccc(-n2sc3ncccc3c2=O)cc1 ?
N

Per the records of this test, what outcome belongs to O=c1ccn([C@@H]2O[C@H](CO)[C@@H](O)[C@H]2F)c(=O)[nH]1 ?
N

Per the records of this test, what outcome belongs to CC1(C)C2CCC1(CC(=O)O)C(Cl)C2 (stereo unspecified) ?
N

###

tested on: A549; assay: NCI tumour cell line growth inhibition, 48 h
Calls of active or inactive are those of the source. No stated cut-off is given here; in the data, active = GI50 up to about 1.1 µM and inactive = higher.
measured-property: GI50

Quote A549 GI50 for entry N#CN=C(NCCO)NCCO .
> 100 µM (inactive)

Quote A549 GI50 for entry CCOC(=O)c1cc2c([nH]1)c(OC(C)=O)cc1c2ccn1Cc1ccccc1 .
> 100 µM (inactive)

Quote A549 GI50 for entry CCOC(=O)N1CCN(P(=O)(Nc2ccc3[nH]c(NC(=O)OC)nc3c2)Oc2ccccc2)CC1 (stereo not drawn) .
> 100 µM (inactive)

Quote A549 GI50 for entry Cc1cn(C2CC(COCc3ccccc3)N(CCO[Si](C)(C)C(C)(C)C)O2)c(=O)[nH]c1=O (stereo not drawn) .
15.1 µM (inactive)

Quote A549 GI50 for entry O=C(CC1(O)C(=O)Nc2c(Cl)cc(Cl)cc21)c1ccc(Br)cc1 (stereo not drawn) .
20.7 µM (inactive)

Quote A549 GI50 for entry COc1ccc(C(C#N)NC23CC4CC(CC(C4)C2)C3)cc1 (stereo not drawn) .
> 100 µM (inactive)

Quote A549 GI50 for entry CCOC(=O)C1(C/C=C(/C)Cl)CCCC1=O (stereo not drawn) .
> 100 µM (inactive)

Quote A549 GI50 for entry N/N=C1\C(=O)N(C2CCCCC2)C(=O)C1C(=O)NC1CCCCC1 (stereo not drawn) .
> 100 µM (inactive)

Quote A549 GI50 for entry CCCCCCCCCCCCCCCC(=O)OCC1CCCN2CCCCC12 (stereo not drawn) .
> 100 µM (inactive)

Quote A549 GI50 for entry O=C(CC1(O)C(=O)Nc2ccc(Br)cc21)c1ccc(Cl)cc1 (stereo not drawn) .
> 100 µM (inactive)

Quote A549 GI50 for entry S=C(N/N=C\C=N/NC(=S)N1CCCCC1)N1CCCCC1 .
0.107 µM (active)

Quote A549 GI50 for entry Cc1cc2c(cc1Cl)SC(N/N=C(\N)c1ccc(Cl)cc1)=NS2(=O)=O .
96.6 µM (inactive)

Quote A549 GI50 for entry O=C1/C(=C/c2cccnc2)SC(=S)N1Cc1ccco1 .
31 µM (inactive)

Quote A549 GI50 for entry COC(=O)C1=NC(=S)NC(c2ccccc2)C1c1nc2ccccc2s1 (stereo not drawn) .
> 100 µM (inactive)

Quote A549 GI50 for entry COc1cccc(/C=N/n2c(C)n[nH]c2=O)c1 .
> 100 µM (inactive)

Quote A549 GI50 for entry CCCC(=O)NC1=C(Cl)C(=O)c2ccccc2C1=O .
4.39 µM (inactive)

Quote A549 GI50 for entry Nc1ncnc2c1ncn2C1CC(O)C(CO)O1 (stereo not drawn) .
> 100 µM (inactive)

Quote A549 GI50 for entry O=C1CCCC/C1=C(\Br)I .
23.3 µM (inactive)
